# targetOfAssay: full length human purified recombinant pp60^c-src (Homo sapiens, UniProt P12931)
# Sequence (P12931 whole entry): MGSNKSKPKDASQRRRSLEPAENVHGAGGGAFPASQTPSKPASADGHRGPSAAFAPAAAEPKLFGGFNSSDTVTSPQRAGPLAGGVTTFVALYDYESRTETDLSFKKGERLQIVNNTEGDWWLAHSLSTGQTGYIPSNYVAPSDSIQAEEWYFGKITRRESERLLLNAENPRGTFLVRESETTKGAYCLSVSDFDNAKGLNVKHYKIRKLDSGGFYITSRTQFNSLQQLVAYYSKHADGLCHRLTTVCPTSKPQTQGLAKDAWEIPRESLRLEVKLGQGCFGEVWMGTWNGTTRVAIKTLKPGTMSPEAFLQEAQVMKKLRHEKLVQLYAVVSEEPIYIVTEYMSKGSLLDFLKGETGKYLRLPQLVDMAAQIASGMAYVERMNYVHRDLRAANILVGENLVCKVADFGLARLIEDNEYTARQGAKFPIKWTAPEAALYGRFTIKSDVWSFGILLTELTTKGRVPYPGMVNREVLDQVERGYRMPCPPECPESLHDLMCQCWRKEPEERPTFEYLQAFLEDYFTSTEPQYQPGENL
# measurementDescription: Inhibition of isolated Src (Lai et al. 1998 assay, intracellular-mimetic conditions)
# Format: biochemical
# conditionContext: column head: Src at 100 μM; read-out: Src IC50
assayReadout: IC50

compound="O=C(NCc1cccc(O)c1)c1cc2cc(F)ccc2[nH]1 [Compound 1a]" recordedmeasurement="40 µM"

---

pIC50 by entry:
# System: human lung cancer cell line H460
# measurementDescription: Inhibition of growth of human lung cancer cell line H460
# Format: cell-based
# conditionContext: NCI-H460, 72 hours, total protein/well
# Excerpt: The results are in Table 2, below.
pIC50: −log10 of the molar value.
assayReadout: pIC50

chemicalstring=O=C(N[C@H](c1ccccc1)[C@H](O)c1ccccc1)c1cc2cc(F)ccc2[nH]1 assayreadout=pIC50 resultoperator== recordedmeasurement=4.52
chemicalstring=O=C(N[C@@H](c1ccccc1)[C@@H](O)c1ccccc1)c1cc2cc(F)ccc2[nH]1 assayreadout=pIC50 resultoperator== recordedmeasurement=4.48
chemicalstring=COc1ccc(NC(=O)c2[nH]c3ccc(F)cc3c2-c2ccccc2)cc1CO assayreadout=pIC50 resultoperator== recordedmeasurement=4.89
chemicalstring=COc1ccc(NC(=O)c2cc3cc(F)ccc3[nH]2)cc1CO assayreadout=pIC50 resultoperator=< recordedmeasurement=4.00
chemicalstring=O=C(NCc1ccccc1F)c1cc2cc(F)ccc2[nH]1 assayreadout=pIC50 resultoperator=< recordedmeasurement=4.00
chemicalstring=O=C(NCc1cccc(F)c1)c1cc2cc(F)ccc2[nH]1 assayreadout=pIC50 resultoperator== recordedmeasurement=4.82
chemicalstring=O=C(Nc1cccc(CO)c1)c1cc2cc(F)ccc2[nH]1 assayreadout=pIC50 resultoperator== recordedmeasurement=3.98
chemicalstring=O=C(NCc1ccccc1F)c1[nH]c2ccc(F)cc2c1-c1ccccc1 assayreadout=pIC50 resultoperator== recordedmeasurement=4.59

---

# targetOfAssay: p55 fyn (Homo sapiens, UniProt P06241)
# Sequence (P06241 whole entry): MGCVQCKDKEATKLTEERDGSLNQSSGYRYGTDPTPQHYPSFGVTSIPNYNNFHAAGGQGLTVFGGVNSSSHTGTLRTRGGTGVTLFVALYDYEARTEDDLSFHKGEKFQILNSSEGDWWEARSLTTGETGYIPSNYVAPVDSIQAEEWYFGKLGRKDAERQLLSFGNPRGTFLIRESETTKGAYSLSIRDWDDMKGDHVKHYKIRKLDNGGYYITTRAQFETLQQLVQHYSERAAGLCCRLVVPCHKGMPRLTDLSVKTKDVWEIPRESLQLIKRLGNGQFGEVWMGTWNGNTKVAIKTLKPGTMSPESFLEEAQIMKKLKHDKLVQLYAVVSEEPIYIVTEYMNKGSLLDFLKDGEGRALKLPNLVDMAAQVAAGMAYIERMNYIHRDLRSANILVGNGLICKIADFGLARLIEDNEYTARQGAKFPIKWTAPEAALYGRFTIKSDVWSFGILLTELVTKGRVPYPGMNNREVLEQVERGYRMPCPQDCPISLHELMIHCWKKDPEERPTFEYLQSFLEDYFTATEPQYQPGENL
# measurementDescription: Inhibition of p55 fyn
# Format: biochemical
# conditionContext: compound at 10 micromolar
inhibition at 10 µM by entry:
assayReadout: inhibition at 10 µM (%)

molecule="O=C(NCc1ccc([N+](=O)[O-])cc1)c1[nH]c2ccc(F)cc2c1-c1ccccc1 [Compound 2kk]" assayreadout="inhibition at 10 µM" recordedmeasurement=24
molecule="O=C(NCc1ccccc1F)c1[nH]c2ccc(F)cc2c1-c1ccccc1 [Compound 2s]" assayreadout="inhibition at 10 µM" recordedmeasurement=11
molecule="O=C(NCc1ccc(F)cc1)c1cc2cc(F)ccc2[nH]1 [Compound 1uuu]" assayreadout="inhibition at 10 µM" recordedmeasurement=16
molecule="CCCN(CCC)C(=O)c1cc2cc(F)ccc2[nH]1 [Compound 1g]" assayreadout="inhibition at 10 µM" recordedmeasurement=19
molecule="Cc1cc(C)cc(NC(=O)c2cc3cc(F)ccc3[nH]2)c1 [Compound 1t]" assayreadout="inhibition at 10 µM" recordedmeasurement=11
molecule="O=C(Nc1ccc(Oc2ccccc2)cc1)c1cc2cc(F)ccc2[nH]1 [Compound 1k]" assayreadout="inhibition at 10 µM" recordedmeasurement=13
molecule="O=C(Nc1ccc(CO)cc1)c1cc2cc(F)ccc2[nH]1 [Compound 1oo]" assayreadout="inhibition at 10 µM" recordedmeasurement=17

---

# targetOfAssay: UniProtKB P06239
# Sequence (P06239 whole entry, species assumed): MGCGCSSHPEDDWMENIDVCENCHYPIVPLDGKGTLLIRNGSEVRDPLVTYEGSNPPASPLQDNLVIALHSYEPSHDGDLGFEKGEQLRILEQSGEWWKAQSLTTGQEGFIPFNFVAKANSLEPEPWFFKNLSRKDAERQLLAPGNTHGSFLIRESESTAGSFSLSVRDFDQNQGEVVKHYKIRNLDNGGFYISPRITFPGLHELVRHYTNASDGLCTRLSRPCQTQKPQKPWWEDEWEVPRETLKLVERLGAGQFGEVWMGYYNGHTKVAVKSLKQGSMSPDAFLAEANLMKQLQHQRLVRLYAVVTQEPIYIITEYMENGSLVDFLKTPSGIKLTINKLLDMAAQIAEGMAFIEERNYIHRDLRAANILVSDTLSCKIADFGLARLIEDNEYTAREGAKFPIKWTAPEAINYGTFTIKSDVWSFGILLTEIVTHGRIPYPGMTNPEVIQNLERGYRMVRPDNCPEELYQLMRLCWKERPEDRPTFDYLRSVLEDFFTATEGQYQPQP
# measurementDescription: Inhibition of p56 lck
# Format: biochemical
# conditionContext: compound at 10 micromolar
assayReadout: inhibition at 10 µM

molecule="O=C(NCc1ccccc1F)c1[nH]c2ccc(F)cc2c1-c1ccccc1 [Compound 2s]" assayreadout="inhibition at 10 µM" recordedmeasurement=10%
molecule="COc1cc(OC)c(CNC(=O)c2cc3cc(F)ccc3[nH]2)c(OC)c1 [Compound 1rr]" assayreadout="inhibition at 10 µM" recordedmeasurement=12%
molecule="O=C(NCc1ccc(CO)cc1)c1cc2cc(F)ccc2[nH]1 [Compound 1oooo]" assayreadout="inhibition at 10 µM" recordedmeasurement=10%
molecule="O=C(Nc1ccccc1O)c1cc2cc(F)ccc2[nH]1 [Compound 1n]" assayreadout="inhibition at 10 µM" recordedmeasurement=12%
molecule="O=C(Nc1cc(O)cc(O)c1)c1cc2cc(F)ccc2[nH]1 [Compound 1r]" assayreadout="inhibition at 10 µM" recordedmeasurement=11%

---

inhibition at 10 µM by entry:
# targetOfAssay: p55 fyn (Homo sapiens)
# measurementDescription: Inhibition of p55 fyn
# Type: biochemical
# conditionContext: compound at 10 micromolar
assayReadout: inhibition at 10 µM (%)

chemicalstring=O=C(NCc1ccccc1Cl)c1cc2cc(F)ccc2[nH]1 targetofassay="p55 fyn (Homo sapiens)" assayreadout="inhibition at 10 µM" recordedmeasurement=12
chemicalstring=O=C(NCc1ccc([N+](=O)[O-])cc1)c1cc2cc(F)ccc2[nH]1 targetofassay="p55 fyn (Homo sapiens)" assayreadout="inhibition at 10 µM" recordedmeasurement=29
chemicalstring=O=C(NCc1cc(F)cc(C(F)(F)F)c1)c1cc2cc(F)ccc2[nH]1 targetofassay="p55 fyn (Homo sapiens)" assayreadout="inhibition at 10 µM" recordedmeasurement=14
chemicalstring=O=C(c1cc2cc(F)ccc2[nH]1)N1CCOCC1 targetofassay="p55 fyn (Homo sapiens)" assayreadout="inhibition at 10 µM" recordedmeasurement=10
chemicalstring=COc1cccc([C@H](C)NC(=O)c2cc3cc(F)ccc3[nH]2)c1 targetofassay="p55 fyn (Homo sapiens)" assayreadout="inhibition at 10 µM" recordedmeasurement=10

---

# targetOfAssay: protein tyrosine phosphatase 1B (PTP-1B) (Homo sapiens)
# Sequence (P18031 1-435): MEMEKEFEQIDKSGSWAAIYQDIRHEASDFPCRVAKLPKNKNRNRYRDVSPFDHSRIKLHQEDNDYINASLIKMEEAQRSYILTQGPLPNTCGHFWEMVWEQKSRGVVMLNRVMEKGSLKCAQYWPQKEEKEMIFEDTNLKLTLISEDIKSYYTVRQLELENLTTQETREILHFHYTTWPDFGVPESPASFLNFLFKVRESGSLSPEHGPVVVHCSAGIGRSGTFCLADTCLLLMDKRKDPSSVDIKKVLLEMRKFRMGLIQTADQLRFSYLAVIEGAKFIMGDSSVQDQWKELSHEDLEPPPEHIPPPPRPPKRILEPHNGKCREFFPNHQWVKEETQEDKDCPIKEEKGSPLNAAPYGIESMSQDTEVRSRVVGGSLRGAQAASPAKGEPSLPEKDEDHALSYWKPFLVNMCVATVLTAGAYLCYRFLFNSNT
# measurementDescription: Inhibition of PTP-1B
# Assay type: biochemical
# conditionContext: compound at 10 micromolar
assayReadout: inhibition at 10 µM (%)

chemicalstring=O=C(NCc1cc(C(F)(F)F)cc(C(F)(F)F)c1)c1[nH]c2ccc(F)cc2c1-c1ccccc1 assayreadout="inhibition at 10 µM" readoutunit=% recordedmeasurement=12
chemicalstring=O=C(NCc1ccccc1Cl)c1cc2cc(F)ccc2[nH]1 assayreadout="inhibition at 10 µM" readoutunit=% recordedmeasurement=10
chemicalstring=O=C(NCc1ccc(F)cc1)c1cc2cc(F)ccc2[nH]1 assayreadout="inhibition at 10 µM" readoutunit=% recordedmeasurement=13
chemicalstring=O=C(NCc1cc(C(F)(F)F)ccc1F)c1cc2cc(F)ccc2[nH]1 assayreadout="inhibition at 10 µM" readoutunit=% recordedmeasurement=12
chemicalstring=O=C(NCc1ccc(OCc2ccccc2)c(O)c1)c1cc2cc(F)ccc2[nH]1 assayreadout="inhibition at 10 µM" readoutunit=% recordedmeasurement=15
chemicalstring=O=C(Nc1ccccc1CO)c1cc2cc(F)ccc2[nH]1 assayreadout="inhibition at 10 µM" readoutunit=% recordedmeasurement=12
chemicalstring=O=C(NCc1ccc(Cl)cc1Cl)c1cc2cc(F)ccc2[nH]1 assayreadout="inhibition at 10 µM" readoutunit=% recordedmeasurement=12
chemicalstring=COc1cc(CNC(=O)c2cc3cc(F)ccc3[nH]2)cc(OC)c1 assayreadout="inhibition at 10 µM" readoutunit=% recordedmeasurement=17
chemicalstring=O=C(NCc1ccc(Cl)cc1)c1[nH]c2ccc(F)cc2c1-c1ccccc1 assayreadout="inhibition at 10 µM" readoutunit=% recordedmeasurement=12
chemicalstring=COc1ccc(NC(=O)c2cc3cc(F)ccc3[nH]2)cc1CO assayreadout="inhibition at 10 µM" readoutunit=% recordedmeasurement=20
chemicalstring=O=C(NCc1cc(O)cc(OCc2ccccc2)c1)c1cc2cc(F)ccc2[nH]1 assayreadout="inhibition at 10 µM" readoutunit=% recordedmeasurement=16

---

# System: human lung cancer cell line H460
# measurementDescription: Inhibition of growth of human lung cancer cell line H460
# Format: cell-based
# conditionContext: NCI-H460, 72 hours, total protein/well
// boundary case: IC50 equal to 40 µM maps to FALSE; strictly smaller maps to TRUE

compound="O=C(NCc1cccc(O)c1)c1cc2cc(F)ccc2[nH]1 [Compound 1a]" cat=TRUE
compound="O=C(NCc1ccc(CO)cc1)c1cc2cc(F)ccc2[nH]1 [Compound 1oooo]" cat=FALSE
compound="O=C(NCc1cccc(O)c1)c1[nH]c2ccc(F)cc2c1-c1ccccc1 [Compound 3q]" cat=TRUE
compound="O=C(NCc1ccccc1)c1cc2cc(F)ccc2[nH]1 [Compound 1bb]" cat=FALSE
compound="O=C(NCc1cccc(F)c1)c1[nH]c2ccc(F)cc2c1-c1ccccc1 [Compound 2g]" cat=TRUE

Data provenance: patent US7427608B2
